- procedure_details: in vivo
- condition: male, Sprague Dawley, rat, plasma, iv, 0.5 mg/kg
readout: Vd (L/kg)

| compound | Vd (L/kg) |
| --- | --- |
| CCN(CC)CCNC(=O)c1cc(Cl)c(N)cc1OC [Metoclopramide, reference compound] | 4.12 |

(a) CCN(CCNC(=O)c1cc(Cl)c(N)cc1OC)CCOC [mPEG1-N-Metoclopramide]
(b) CCN(CCNC(=O)c1cc(Cl)c(N)cc1OC)CCOCCOCCOCCOCCOCCOCCOCCOC [mPEG8-N-Metoclopramide]
(c) CCN(CCNC(=O)c1cc(Cl)c(N)cc1OC)CCOCCOCCOCCOC [mPEG4-N-Metoclopramide]
Ascending by Vd, please: list the compounds accordingly. Could you list the labels in the order requested?
a, c, b
(a: 2.84 L/kg, c: 7.17 L/kg, b: 17.8 L/kg)
